Test system: HOP-62 NSCLC
test: NCI-60 one-dose screen, 48 h
experimental_setup: 10 µM unless noted
About 83,000 compounds went through this panel and 20% of them were active in at least one assay; those are over-represented in the sample as a whole. Activity calls are given as the source filed them. The calls were made as follows: active = growth percent below 10; inactive = the rest.
Could you please pick one outcome from this set? TRUE for active, FALSE for inactive

Task: I would be grateful if you could indicate the recorded call for Cc1ccc2c(c1)/C(=N\N=C/c1cn(C(C)C)c3ccccc13)C(=O)N2 .
Result: FALSE

Task: I would be grateful if you could indicate the recorded call for C/C=C/C1OC23CCCCC2C(C#N)(C(=N)O3)C1(C#N)C#N (centres undefined) .
Result: FALSE

Task: I would be grateful if you could indicate the recorded call for CCOC(=O)C1=C(C(=O)c2ccc(Br)cc2)C(c2ccc(Br)cc2)NC(=S)N1 (centres undefined) .
Result: FALSE

Task: I would be grateful if you could indicate the recorded call for CCN=Cc1c(O)c(O)c(C(C)C)c2cc(C)c(-c3c(C)cc4c(C(C)C)c(O)c(O)c(C=NCC)c4c3O)c(O)c12 .
Result: FALSE

Task: I would be grateful if you could indicate the recorded call for CC(C)(C)c1cc(C(=O)Nc2cc3ccccc3cc2C(=O)NCCN)cc(C(C)(C)C)c1 .
Result: TRUE

Task: I would be grateful if you could indicate the recorded call for O=c1c2c3c(sc2n2cnnc2n1Cc1ccccc1)CCCC3 .
Result: FALSE

Task: I would be grateful if you could indicate the recorded call for Nc1nc(Nc2ccccc2)c2ncn(Cc3ccc4c(c3)OCO4)c2n1 .
Result: FALSE

Task: I would be grateful if you could indicate the recorded call for Cc1cc(NN=C(c2ccc(O)cc2)c2ccc(O)cc2)c([N+](=O)[O-])cc1[N+](=O)[O-] .
Result: FALSE

Task: I would be grateful if you could indicate the recorded call for COc1cc(/C=C/C(=O)/C=C/c2ccc(-n3ccnc3C)cc2)ccc1O .
Result: FALSE

* * *

Test system: HCT-116 colon
test: NCI-60 one-dose screen, 48 h
experimental_setup: 10 µM unless noted
The panel holds about 83,000 compounds, 20% with a hit somewhere; the sample as a whole holds those more often. Active and inactive are the calls of the source. The calls were made as follows: active = growth percent below 10; inactive = the rest.
Could you please pick one outcome from this set? y for active, n for inactive

Cc1ncc(C(=O)Nc2ccc(CN3CCN(C)CC3)c(C(F)(F)F)c2)cc1C#Cc1c(N)ncc2ccc(C#N)cc12: n
Nc1ccc(NC(=O)c2ccccc2)c2c1C(=O)c1ccccc1C2=O: n
C#C[C@]1(O)CC[C@H]2[C@@H]3CC=C4c5nc(Nc6ncccn6)sc5CC[C@]4(C)[C@H]3CC[C@@]21C: n
O=[N+]([O-])c1cc(CCl)ccc1OCCBr: n
COc1ccccc1S(=O)Nc1ccccc1 (stereo not given): n

Task: I would be grateful if you could indicate the recorded call for COc1ccc2c(c1)C(C)Cc1c(ncnc1-n1cnc3ccccc31)N2C (stereo not given) .
Result: n

Task: I would be grateful if you could indicate the recorded call for Clc1ccc(N2CCN(CCCN3CCN(c4cccc(Cl)c4)CC3)CC2)cc1 .
Result: n

* * *

Tested on: DU-145 prostate
test: NCI-60 one-dose screen, 48 h
experimental_setup: 10 µM unless noted
The panel holds about 83,000 compounds, 20% with a hit somewhere; the sample as a whole holds those more often. Calls of active or inactive are those of the source. Rule for the calls: active = growth percent below 10; inactive = the rest.
Could you please pick one outcome from this set? active, inactive

Sample answers from the record:
COc1ccc(/C=C/C=C\C(=O)c2ccc(-n3ccnc3)cc2)cc1: inactive
Cc1cccc(C[C@H](NC(=O)Nc2ccc(Cl)cc2F)C(=O)N[C@@H]2C(=O)N3C[C@H](O)C[C@H]3C(=O)N3CCCC[C@H]3C(=O)N[C@@H](C)C(=O)N3C[C@H](C)C[C@H]3C(=O)O[C@H]2C)c1: inactive
O=S(=O)(NCCNc1nccc(-c2c(-c3cccc(F)c3)nc3occn23)n1)c1ccc(C(F)(F)F)cc1: inactive
COc1cc(C)cc2oc3oc(=O)c(-c4nc5ccccc5s4)cc3c(=O)c12: inactive
N=C(N)c1ccc(-c2ccc(-c3ccc(-c4cccs4)s3)s2)cc1F: inactive
Nc1nnc(CSc2nnc3n(Cc4ccccc4)c(=O)c4c5c(sc4n23)CCCC5)s1: inactive
FC(F)(F)c1ccc2c(c1)Sc1ccccc1N2: inactive
Cc1cc(C)nc(SCC(=O)Nc2cccc(N=Cc3ccccc3O)c2)n1: inactive

Task: I would be grateful if you could indicate the recorded call for CCN(CC)CCCCCCNc1cccc2cc(Br)cnc12 .
Result: inactive

Task: I would be grateful if you could indicate the recorded call for C#CCNC(=O)CC[C@@H](C)[C@H]1CC[C@H]2[C@@H]3CC[C@@H]4CC(=O)CC[C@]4(C)[C@H]3CC[C@]12C .
Result: active

Task: I would be grateful if you could indicate the recorded call for CCN(CC)CCS(=O)(=O)CCNc1ccnc2cc(Cl)ccc12 .
Result: active

Task: I would be grateful if you could indicate the recorded call for O=C(N/N=C1\c2ccccc2-c2cccc(C(=O)O)c21)c1ccc(O)cc1 .
Result: inactive

Task: I would be grateful if you could indicate the recorded call for CC1Cc2c(Cl)ncnc2N(C)c2ccc(O)cc21 (stereo not given) .
Result: inactive

Task: I would be grateful if you could indicate the recorded call for CCN(CC)c1cc(N)c(Cc2c(N)cc(N(CC)CC)cc2Cl)c(Cl)c1 .
Result: inactive

Task: I would be grateful if you could indicate the recorded call for C=C(CN=[N+]=[N-])[C@@H]1CC[C@]2(C)[C@H](CC[C@@H]3[C@H]4[C@H]5OC(=O)[C@@]4(CCC5(C)C)CC[C@]32C)[C@@]1(C)CCC#N .
Result: inactive

Task: I would be grateful if you could indicate the recorded call for Oc1cc(Nc2ccnc3cc(Cl)ccc23)c2ncccc2c1 .
Result: inactive

Task: I would be grateful if you could indicate the recorded call for C#CC(OC(=O)N(C)C)(c1ccccc1)c1ccc(F)cc1 (stereo not given) .
Result: inactive

* * *

Tested on: HT29 colon
test: NCI-60 one-dose screen, 48 h
experimental_setup: 10 µM unless noted
This is part of a sample that, as a whole, favours compounds with a hit. Of some 83,000 tested, about 20% had one in any assay. Calls of active or inactive are those of the source. The calls were made as follows: active = growth percent below 10; inactive = the rest.
Could you please pick one outcome from this set? active, inactive

Sample answers from the record:
COc1cc(-c2cc(-c3ccc(Nc4ncnc5cc(Cl)ccc45)cc3)nc(N3CCCCC3)n2)cc(OC)c1OC: inactive
NNC(=O)c1ccc(C(=O)NN)cc1: inactive
N#C/C(=C(/O)CCCO)c1nc2ccccc2c(=O)[nH]1: inactive
C=CCCCCCCCCC(=O)OC(C)C: inactive
CCCCC(CCCCCC(CCCC)C1NC(C)Cc2cc(OC)c(OC)cc21)C1NC(C)Cc2cc(OC)c(OC)cc21 (stereo unspecified): active

Read the next record carefully.
Task: I would be grateful if you could indicate the recorded call for CC[C@]12C=CCN3CC[C@@]4(c5ccc(OC)cc5N(C)[C@H]4[C@@](O)(C(=O)OC)[C@@H]1OC(=O)CCC(=O)O[C@H]1CC[C@H]4[C@@H]5CCC6=CC(=O)CC[C@@H]6[C@H]5CC[C@]14C)[C@@H]32 .
Result: active

* * *

Test system: SK-MEL-28 melanoma
test: NCI-60 one-dose screen, 48 h
experimental_setup: 10 µM unless noted
The panel holds about 83,000 compounds, 20% with a hit somewhere; the sample as a whole holds those more often. Active and inactive are the calls of the source. The calls were made as follows: active = growth percent below 10; inactive = the rest.
Could you please pick one outcome from this set? true (1) = active, false (0) = inactive

Sample answers from the record:
COc1cc(Cl)cc(-c2nn(C(=O)NS(=O)(=O)c3ccccc3)cc2-c2ccncc2)c1: false (0)
O=S(=O)(c1ccc(N/N=C\c2ccccc2Cl)cc1)c1ccc(N/N=C/c2ccccc2Cl)cc1: false (0)
O=[N+]([O-])c1cc(CCl)ccc1OCCBr: false (0)
C=C(C)[C@@H]1CC[C@]2(C(N)=O)CC[C@]3(C)[C@H](CC[C@@H]4[C@@]5(C)C/C(=C/c6cccnc6)[C@H](O)C(C)(C)[C@@H]5CC[C@]43C)[C@@H]12: false (0)
O=[N+]([O-])c1cccc(/C=C/c2ccc3ccccc3n2)c1: false (0)
O=C1Nc2ccccc2/C1=C/C(=O)c1ccc(N2CCCCC2)cc1: false (0)
Cc1cccc(/C=C2\N=C(c3ccccc3)N(c3ccc(S(N)(=O)=O)cc3)C2=O)c1: false (0)
C=C(CC(=O)OC)C(C)=O: false (0)

Task: I would be grateful if you could indicate the recorded call for CCOC(=O)c1nc2c3ccccc3ccn2c1C(=O)OC .
Result: false (0)

Task: I would be grateful if you could indicate the recorded call for Fc1ccc(NC(=S)c2ccccc2)cc1 .
Result: false (0)

Task: I would be grateful if you could indicate the recorded call for C=CCCCCCCCCC(=O)OC(C)C .
Result: false (0)

Task: I would be grateful if you could indicate the recorded call for CC1(C)CC[C@]23CC[C@]4(C)[C@H](CC[C@@H]5[C@@]6(C)C/C(=C/c7ccncc7)C(=O)C(C)(C)[C@@H]6CC[C@]54C)[C@H]2[C@H]1OC3=O .
Result: false (0)

Task: I would be grateful if you could indicate the recorded call for CC1(C)S[C@@H]2[C@H](NC(=O)[C@H](C(=O)O)c3cccs3)C(=O)N2[C@H]1C(=O)O .
Result: false (0)

Task: I would be grateful if you could indicate the recorded call for CCOc1ccc(/C=C(\C#N)c2cc3ccccc3[nH]2)cc1 .
Result: false (0)
